Reference for the values: patent US20120264685A1

- target.of.assay: human glucagon receptor (human, UniProt P47871 26-477)
- Sequence (P47871 26-477): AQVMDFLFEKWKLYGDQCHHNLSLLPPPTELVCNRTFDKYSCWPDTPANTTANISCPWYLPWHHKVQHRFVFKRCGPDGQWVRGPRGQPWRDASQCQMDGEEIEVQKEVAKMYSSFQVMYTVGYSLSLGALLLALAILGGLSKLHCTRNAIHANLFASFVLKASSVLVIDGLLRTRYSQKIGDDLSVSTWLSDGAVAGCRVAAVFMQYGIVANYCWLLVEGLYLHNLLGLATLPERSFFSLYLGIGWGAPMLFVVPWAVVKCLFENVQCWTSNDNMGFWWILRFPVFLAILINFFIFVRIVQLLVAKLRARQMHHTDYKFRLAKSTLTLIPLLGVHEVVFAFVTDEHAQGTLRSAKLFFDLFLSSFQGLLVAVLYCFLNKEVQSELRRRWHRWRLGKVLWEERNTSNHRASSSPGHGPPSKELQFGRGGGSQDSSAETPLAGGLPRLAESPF
- test.summary: cell-based or functional assay
Where no end group is shown, it is not given here. [ ]: non-standard residue; d: D form. αMePhe(2,6-F2) = C[C@](N)(Cc1c(F)cccc1F)C(=O)O; αMePhe(2-F) = C[C@](N)(Cc1ccccc1F)C(=O)O; αMeBip(OMe) = alpha-methylated Bip(OMe); hhPhe = N[C@@H](CCCc1ccccc1)C(=O)O; αMeD = C[C@](N)(CC(=O)O)C(=O)O; αMeP = C[C@@]1(C(=O)O)CCCN1; αMeAPPA = not defined here; αMeS = C[C@](N)(CO)C(=O)O; Aib = CC(C)(N)C(=O)O
reported.metric: cAMP production (pmol/ml/µg prt) with saturated glucagon peptide, at 1 nM
Quick note: give the figure in pmol/ml/µg prt, leave out the unit.

Sample records with cAMP production (pmol/ml/µg prt) with saturated glucagon peptide, at 1 nM:
[[record]]
binder = "VH[Aib]EGT[αMePhe(2-F)]T[αMeS]D[αMeBip(OMe)][hhPhe]-NH2 [Seq. ID. No. 47]"
recorded_measurement = 9

[[record]]
binder = "VHSQGT[αMePhe(2-F)]TS[αMeD][αMeBip(OMe)][αMeAPPA] (not fully specified (C-terminus); printed as VHSQGT-(αMe-2FPhe)-TS-(αMe-Asp)-(αMe-Bip(OMe))-(αMe-APPA); reading uncertain) [Seq. ID. No. 189]"
recorded_measurement = 4

[[record]]
binder = "VH[αMeP]EGT[αMePhe(2,6-F2)]TS[αMeD][αMeBip(OMe)][αMeAPPA] (not fully specified (C-terminus); reading uncertain) [Seq. ID. No. 204]"
recorded_measurement = 9


Next up:
Value lookup for cAMP production (pmol/ml/µg prt) with saturated glucagon peptide, at 1 nM; key = VH[αMeP]QGT[αMePhe(2-F)]T[αMeS]D[αMeBip(OMe)][hhPhe]-NH2 [Seq. ID. No. 44]
5
